Each entry below carries its reported pIC50.
TARGET_DESC: human P2X3 receptor (Homo sapiens (Human), UniProt P56373)
Sequence (P56373 whole entry): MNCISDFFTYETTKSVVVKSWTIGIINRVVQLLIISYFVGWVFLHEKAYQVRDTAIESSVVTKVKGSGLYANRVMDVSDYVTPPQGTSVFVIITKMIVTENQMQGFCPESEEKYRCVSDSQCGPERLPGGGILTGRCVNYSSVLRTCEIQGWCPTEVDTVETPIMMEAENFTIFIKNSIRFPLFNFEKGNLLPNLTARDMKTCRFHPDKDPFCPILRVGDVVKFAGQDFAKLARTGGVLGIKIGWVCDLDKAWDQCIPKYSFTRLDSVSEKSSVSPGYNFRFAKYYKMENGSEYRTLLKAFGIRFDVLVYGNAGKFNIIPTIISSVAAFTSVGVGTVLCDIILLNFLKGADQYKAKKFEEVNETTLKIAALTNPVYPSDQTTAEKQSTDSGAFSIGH
ASSAY_NOTES: Evaluation of human P2X3 receptor inhibitory activity (Fluo-3 calcium fluorescence, FDSS 3000, ATP stimulation)
Format: cell-based
CONDITION_NOTES: C6BU-1 cells stably expressing human P2X3 receptor
Would you please state pIC50, meaning minus log10 of the concentration in mol/L, as a bare number?

> print(dat)
                              record.smiles  endpoint.value
1  CCn1c(=O)[nH]/c(=N\c2ccc(-n3cc(C(=O)OC)ccc3=O)cc2)n(Cc2ccc(Cl)cc2)c1=O            6.21
2  CCOC(=O)CCn1c(=O)[nH]/c(=N\c2ccc(Oc3cccnc3)cc2)n(Cc2ccc(Cl)cc2)c1=O            8.30
3  Cc1ccc(Cn2c(=O)n(CCC(=O)O)c(=O)[nH]/c2=N\c2cccc(C(F)(F)F)c2C)cc1            6.07

Moving on to the next compound.
So what's the measured pIC50 for this one? `CC[C@H](CC(=O)O)n1c(=O)[nH]/c(=N\c2ccc(OC(C)C)c(C)c2)n(Cc2ccc(Cl)cc2)c1=O` 6.55

* * *

Each entry below carries its reported IC50.
TARGET_DESC: human P2X3 receptor (Homo sapiens (Human), UniProt P56373)
ASSAY_NOTES: Evaluation of human P2X3 receptor inhibitory activity (Fluo-3 calcium fluorescence, FDSS 3000, ATP stimulation)
Type: cell-based
CONDITION_NOTES: C6BU-1 cells stably expressing human P2X3 receptor
Write the value in nM as a bare number.

So what's the measured IC50 for this one? `Cc1ccc(Cn2c(=O)n(C[C@H](C)C(=O)O)c(=O)[nH]/c2=N\c2ccc(N3CCCCCC3)cc2)cc1` 183

* * *

TARGET_DESC: UniProt:P56373
ASSAY_NOTES: Evaluation of human P2X3 receptor inhibitory activity (Fluo-3 calcium fluorescence, FDSS 3000, ATP stimulation)
Type: cell-based
CONDITION_NOTES: C6BU-1 cells stably expressing human P2X3 receptor, Fluo-3 fluorescence, FDSS 3000
Each entry below carries its reported IC50.
Write the value in nM as a bare number.

A selection of reference data follows.
> print(dat)
                                   molecule     target.desc  recorded.endpoint  endpoint.value
1  CC[C@@H](C)Oc1ccc(/N=c2\[nH]c(=O)n([C@H](C)CC(=O)OC)c(=O)n2Cc2ccc(C)cc2)cc1C [Compound I-0938]  UniProt:P56373               IC50              35
2  Cc1ccc(Cn2c(=O)n(CCC(N)=O)c(=O)[nH]/c2=N\c2ccc3nc(C)sc3c2)cc1 [Compound I-1671]  UniProt:P56373               IC50               6
3  O=c1[nH]/c(=N\c2ccc(Oc3ccnc(O)c3)cc2)n(Cc2ccc(Cl)cc2)c(=O)n1CCCO [Compound I-1713]  UniProt:P56373               IC50               3

So what's the measured IC50 for this one? COC(=O)CC1(Cn2c(=O)[nH]/c(=N\c3ccc(OC(C)C)c(C)c3)n(Cc3ccc(C)cc3)c2=O)CC1 [Compound I-0980] 11

* * *

Each entry below carries its reported pIC50.
TARGET_DESC: human P2X3 receptor (Homo sapiens (Human), UniProt P56373)
ASSAY_NOTES: Evaluation of human P2X3 receptor inhibitory activity (Fluo-3 calcium fluorescence, FDSS 3000, ATP stimulation)
Type: cell-based
CONDITION_NOTES: C6BU-1 cells stably expressing human P2X3 receptor, Fluo-3 fluorescence, FDSS 3000
Would you please state pIC50, meaning minus log10 of the concentration in mol/L, as a bare number?

> print(dat)
                              record.smiles                               target.desc  recorded.endpoint  endpoint.value
1  COC(=O)[C@@H](C)Cn1c(=O)[nH]/c(=N\c2ccc(OC(F)(F)F)c(Cl)c2)n(Cc2ccc(C)cc2)c1=O  human P2X3 receptor (Homo sapiens (Human), UniProt P56373)              pIC50            7.39
2  COC(=O)[C@H](C)[C@H](C)n1c(=O)[nH]/c(=N\c2ccc(OC(C)C)c(Cl)c2)n(Cc2ccc(Cl)cc2)c1=O  human P2X3 receptor (Homo sapiens (Human), UniProt P56373)              pIC50            7.72

So what's the measured pIC50 for this one? `COC(=O)[C@@H](C)Cn1c(=O)[nH]/c(=N\c2ccc(CC3CCCC3)cc2)n(Cc2ccc(Cl)cc2)c1=O` 6.85

* * *

TARGET_DESC: human P2X3 receptor (Homo sapiens (Human), UniProt P56373)
ASSAY_NOTES: Evaluation of human P2X3 receptor inhibitory activity (Fluo-3 calcium fluorescence, FDSS 3000, ATP stimulation)
Type: cell-based
CONDITION_NOTES: C6BU-1 cells stably expressing human P2X3 receptor, Fluo-3 fluorescence, FDSS 3000
RECORDED_ENDPOINT: IC50 (nM)
Write the value in nM as a bare number.

> print(dat)
                                   compound  recorded.endpoint  endpoint.value
1  CCOC(=O)CCn1c(=O)[nH]/c(=N\c2ccc(OC[C@@H](C)CC)cc2)n(Cc2ccc(C)cc2)c1=O [Compound I-1051]               IC50             100
2  C[C@@H](C(=O)O)[C@H](C)n1c(=O)[nH]/c(=N\c2ccc3c(c2)OC(F)(F)O3)n(Cc2ccc(Cl)cc2)c1=O [Compound I-1821]               IC50             429
3  CC(C)Oc1ccc(/N=c2\[nH]c(=O)n(CC3(C(=O)O)COC3)c(=O)n2Cc2ccc(Cl)cc2)cc1Cl [Compound I-1011]               IC50              21

So what's the measured IC50 for this one? CCc1nc2ccc(/N=c3\[nH]c(=O)n(CC(=O)OC)c(=O)n3Cc3ccc(Cl)cc3)cc2s1 [Compound I-1752] 4

* * *

TARGET_DESC: human P2X3 receptor (Homo sapiens (Human), UniProt P56373)
ASSAY_NOTES: Evaluation of human P2X3 receptor inhibitory activity (Fluo-3 calcium fluorescence, FDSS 3000, ATP stimulation);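 note: stimulus was 50 nM ATP with fluorescence followed for 3 min, and the response per well was peak post-ATP fluorescence divided by the reading at measurement start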
Type: cell-based
CONDITION_NOTES: C6BU-1 cells stably expressing human P2X3 receptor
RECORDED_ENDPOINT: pIC50
Would you please state pIC50, meaning minus log10 of the concentration in mol/L, as a bare number?

A selection of reference data follows.
> print(dat)
                                   molecule                               target.desc  endpoint.value
1  Cc1cc(/N=c2\[nH]c(=O)n(CC[C@H](NC(=O)OC(C)(C)C)C(=O)O)c(=O)n2Cc2ccc(Cl)cc2)ccc1OC(C)C  human P2X3 receptor (Homo sapiens (Human), UniProt P56373)            7.39
2  COC(=O)[C@H](C)[C@H](C)n1c(=O)[nH]/c(=N\c2ccc(OC3CCC3)c(C)c2)n(Cc2ccc(Cl)cc2)c1=O  human P2X3 receptor (Homo sapiens (Human), UniProt P56373)            7.30
3  CCn1c(=O)[nH]/c(=N\c2ccc(Oc3ccc(-c4ncn[nH]4)cc3)cc2)n(Cc2ccc(Cl)cc2)c1=O  human P2X3 receptor (Homo sapiens (Human), UniProt P56373)            8.70
4  CC(C)Oc1ccc(/N=c2\[nH]c(=O)n(C(C)(C)C(=O)NC(CO)CO)c(=O)n2Cc2ccc(Cl)cc2)cc1Cl  human P2X3 receptor (Homo sapiens (Human), UniProt P56373)            7.92
5  COc1ccc(/N=c2\[nH]c(=O)n(C[C@H](C)C(=O)O)c(=O)n2Cc2ccc(Cl)cc2)cc1C(F)(F)F  human P2X3 receptor (Homo sapiens (Human), UniProt P56373)            6.15

So what's the measured pIC50 for this one? `Cc1ccc(Cn2c(=O)n(CCC(=O)O)c(=O)[nH]/c2=N\c2ccc(OC3CCC3)c(Cl)c2)cc1` 7.27

And the next one, `CCCOc1ccc(/N=c2\[nH]c(=O)n(C[C@H](C)C(=O)O)c(=O)n2Cc2ccc(Cl)cc2)cc1` ? 7.70

And the next one, `Cc1cc(/N=c2\[nH]c(=O)n(CC3(C(=O)O)CC3)c(=O)n2Cc2ccc(Cl)cc2)ccc1OC(C)C` ? 7.59

And the next one, `C[C@@H](Oc1ccc(/N=c2\[nH]c(=O)n(CC(=O)NCC(F)(F)F)c(=O)n2Cc2ccc(Cl)cc2)cc1)C(F)(F)F` ? 7.89

And the next one, CC(C)Oc1ccc(/N=c2\[nH]c(=O)n(C3C[C@H]3C(=O)O)c(=O)n2Cc2ccc(Cl)cc2)cc1F (stereo partly drawn) ? 6.90
